Each recorded value in this set is attributed to patent US20070117743A1.

Test system: HT-29
EXPERIMENTAL_PROTOCOL: SRB colorimetric assay of cell growth and viability, HT-29
Format: cell-based, human
SETUP_CONDITIONS: 48 hours exposure, SRB; read-out: LC50 HT-29
Where a SMILES comes first, the peptide text is derived from it. Bridges are numbered along the chain shown (N, C = ends). [ ]: non-standard residue; d: D form. The star is where a group is joined. d(aIle) = CC[C@H](C)[C@@H](N)C(=O)O; d(aThr) = C[C@@H](O)[C@@H](N)C(=O)O; Hexanoyl(5-Me) = CC(C)CCCC(=O)*; Orn = NCCC[C@H](N)C(=O)O; Dhb = C/C=C(\N)C(=O)O
VALUE_TYPE: CC50

MOLECULE	RESULT
C/C=C1\NC(=O)[C@H](Cc2ccccc2)NC(=O)[C@@H](C(C)C)NC(=O)[C@@H]([C@@H](C)CC)NC(=O)[C@H](NC(=O)[C@H](NC(=O)[C@H](CCCN)NC(=O)[C@H]2CCCN2C(=O)[C@H](NC(=O)[C@@H](NC(=O)[C@H](CCC(N)=O)NC(=O)CCCC(C)C)C(C)C)C(C)C)[C@@H](C)CC)[C@@H](C)OC(=O)[C@H](C(C)C)NC1=O [Compound 58, [Gln^12, noD-Val^13]-KF] ({Hexanoyl(5-Me)}-QV[dV][dP][Orn][d(aIle)][d(aThr)][d(aIle)][dV]F[Dhb]V; ester 7-C)	≥ 7.11 µM
